Can you tell me inhibition for the items I'm about to list?
- Assayed system: MAP kinase-interacting serine/threonine-protein kinase 1 (Homo sapiens) (UniProt Q9BUB5)
- Sequence (Q9BUB5 whole entry, looked up): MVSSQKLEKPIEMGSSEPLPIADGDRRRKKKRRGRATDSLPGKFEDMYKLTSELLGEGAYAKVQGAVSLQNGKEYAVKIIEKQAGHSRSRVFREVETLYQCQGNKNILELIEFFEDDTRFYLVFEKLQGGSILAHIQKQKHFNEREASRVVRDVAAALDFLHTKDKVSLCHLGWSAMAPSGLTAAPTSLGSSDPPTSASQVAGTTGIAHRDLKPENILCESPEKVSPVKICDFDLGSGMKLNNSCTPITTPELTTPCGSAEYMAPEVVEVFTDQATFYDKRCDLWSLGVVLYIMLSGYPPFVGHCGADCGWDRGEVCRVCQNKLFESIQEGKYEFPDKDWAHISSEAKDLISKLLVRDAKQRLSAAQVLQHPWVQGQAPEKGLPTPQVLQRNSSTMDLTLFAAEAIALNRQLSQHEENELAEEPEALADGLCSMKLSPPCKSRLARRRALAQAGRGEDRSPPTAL
- Condition info: at 0.1 µM
- Description: GSK_PKIS: MKNK1 mean inhibition at 0.1 uM [Nanosyn]
Report the value in % with no unit label.

Prompt: Kindly indicate its recorded inhibition. Item: "NS(=O)(=O)c1ccc(N/N=C2\C(=O)Nc3ccc(Cl)cc32)cc1"
Response: 2.08

Prompt: Kindly indicate its recorded inhibition. Item: "N#Cc1cccc(Nc2nccc(-c3cnn4ncccc34)n2)c1"
Response: 6.09

Prompt: Kindly indicate its recorded inhibition. Item: "CS(=O)(=O)Nc1cccc(-c2ccc3c(NC(=O)C4CC4)n[nH]c3c2)c1"
Response: 2.34

Prompt: Kindly indicate its recorded inhibition. Item: "Nc1nccc(-c2c(-c3ccc(F)cc3)ncn2CCCN2CCOCC2)n1"
Response: 2.6

Prompt: Kindly indicate its recorded inhibition. Item: "O=C1Nc2ccccc2/C1=C/Nc1ccc2[nH]c(=O)[nH]c2c1"
Response: 5.46

Prompt: Kindly indicate its recorded inhibition. Item: "Nc1ccc(C#Cc2cncnc2Nc2ccc(OCc3cccc(F)c3)c(Cl)c2)cc1"
Response: 2.04

Prompt: Kindly indicate its recorded inhibition. Item: CCCN1CCCC(c2ccc(Nc3nc(Nc4cc(F)ccc4C(N)=O)c4cc[nH]c4n3)c(OC)c2)C1 (configuration not stated)
Response: 3.82

Prompt: Kindly indicate its recorded inhibition. Item: "COC(=O)c1ccc2c(c1)C(=Cc1cc(Br)c(O)c(Br)c1)C(=O)N2"
Response: 1.07

Prompt: Kindly indicate its recorded inhibition. Item: "COc1cccc(-n2nc(C)c3c(N/N=C(\C)c4ccncc4)ncnc32)c1"
Response: 0.47

Prompt: Kindly indicate its recorded inhibition. Item: "c1ccc(Cc2nc3ccc(Nc4ncnc5ccccc45)cc3[nH]2)cc1"
Response: 2.13

Prompt: Kindly indicate its recorded inhibition. Item: "NS(=O)(=O)c1ccc(NC=C2C(=O)Nc3ccc4ncsc4c32)cc1"
Response: 9.09

Prompt: Kindly indicate its recorded inhibition. Item: "C[C@@H](Oc1cc(-n2cnc3ccc(OC[C@@H](O)CO)cc32)sc1C(N)=O)c1ccccc1Cl"
Response: -0.74

Prompt: Kindly indicate its recorded inhibition. Item: "CN(C)c1cc2c(Nc3ccc4c(cnn4Cc4ccccc4)c3)ncnc2cn1"
Response: 3.47

Prompt: Kindly indicate its recorded inhibition. Item: "NS(=O)(=O)c1cccc(Nc2cc(-c3ccc(F)cc3)n[nH]2)c1"
Response: 2.78

Prompt: Kindly indicate its recorded inhibition. Item: "N#Cc1c(NC(=O)c2ccccc2F)sc2c1CCCC2"
Response: -0.78

Prompt: Kindly indicate its recorded inhibition. Item: "NS(=O)(=O)c1ccc(Nc2cc(-c3cccc(O)c3)n[nH]2)cc1"
Response: 3.01

Prompt: Kindly indicate its recorded inhibition. Item: "CC(C)c1ccc2c(c1)NC(=O)/C2=N/Nc1ccc(S(N)(=O)=O)cc1"
Response: 1.43

Prompt: Kindly indicate its recorded inhibition. Item: "COC(=O)Nc1nc2cc(Oc3ccc(NC(=O)Nc4cccc(Br)c4)cc3)ccc2[nH]1"
Response: 4.77

Prompt: Kindly indicate its recorded inhibition. Item: "FC(F)(F)c1ccc(-c2nn3ncccc3c2-c2ccnc(Nc3ccc4c(c3)OCCO4)n2)cc1"
Response: 6.66

Prompt: Kindly indicate its recorded inhibition. Item: "O=S(=O)(CCOCc1ccc(-c2ccc3ncnc(Nc4ccc(OCc5cccc(F)c5)c(Cl)c4)c3c2)o1)c1ccccc1"
Response: 1.49

Prompt: Kindly indicate its recorded inhibition. Item: "OCc1ccc(-c2nc(-c3ccccn3)c(-c3ccc4c(c3)OCO4)[nH]2)cc1"
Response: 2.65

Prompt: Kindly indicate its recorded inhibition. Item: "NS(=O)(=O)c1cccc(-c2cc3ccncc3cc2OCc2ccccc2)c1"
Response: 3.03

Prompt: Kindly indicate its recorded inhibition. Item: "O=C1Nc2ccc(-c3cccnc3)cc2C1=Cc1cc(Br)c(O)c(Br)c1"
Response: 2.71

Prompt: Kindly indicate its recorded inhibition. Item: "CC(C)c1ccc(Nc2nccc(-c3cnn4ncccc34)n2)cc1"
Response: 3.64

Prompt: Kindly indicate its recorded inhibition. Item: "CN(C)C(=O)O[C@H]1CN[C@H](C#Cc2cc3ncnc(Nc4ccc(OCc5cccc(F)c5)c(Cl)c4)c3s2)C1"
Response: 2.31

Prompt: Kindly indicate its recorded inhibition. Item: "CN(C)CCCn1c(-c2nonc2N)nc2cnccc21"
Response: 1.87

Prompt: Kindly indicate its recorded inhibition. Item: "COc1cc(Nc2nccc(-c3cnn4ncccc34)n2)cc(OC)c1"
Response: 1.97
